The following compounds have recorded pKi on Somatostatin receptor type 5 (Homo sapiens, UniProt P35346).
Sequence (P35346 whole entry): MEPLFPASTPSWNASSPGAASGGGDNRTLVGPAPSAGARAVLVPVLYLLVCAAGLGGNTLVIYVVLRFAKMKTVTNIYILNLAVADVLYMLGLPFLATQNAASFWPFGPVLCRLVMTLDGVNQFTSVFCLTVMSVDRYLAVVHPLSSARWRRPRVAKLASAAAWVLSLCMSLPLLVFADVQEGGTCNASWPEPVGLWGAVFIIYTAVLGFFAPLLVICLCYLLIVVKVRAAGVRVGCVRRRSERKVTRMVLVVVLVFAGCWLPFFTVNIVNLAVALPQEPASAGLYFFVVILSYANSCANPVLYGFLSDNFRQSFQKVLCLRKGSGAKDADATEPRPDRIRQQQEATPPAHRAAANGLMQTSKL
pKi: −log10 of the molar value.
Measurement Type: pKi

CCOc1cc(CN2CCC(NC(=O)c3cncc(C)c3)CC2)cc(OCC)c1C; 8.40

(a) CCOc1cc(CN2CCC(NC(=O)c3cncc(C)c3)CC2)cc(OCC)c1Cl
(b) CCOc1cc(CN2CCCC(NC(=O)c3cncc(C)c3)CC2)cc(OCC)c1-c1ccc(F)cc1 (racemic)
query: In the pair a and b , the larger recorded pKi belongs to which? When you have decided, please share the label of that item.
result: a
(a: 8.36, b: 8.03)

(I) CCOc1cc(CN2CCC(NC(=O)c3cncc(C)c3)CC2)ccc1-c1ccc(C(F)(F)F)cc1
(II) CCOc1cc(CN2CCC(NC(=O)c3ccc(NC)nc3)CC2)cc(OCC)c1-c1ccc(F)cc1
query: In the pair I and II , the larger recorded pKi belongs to which? When you have decided, please share the label of that item.
result: II
(II: 8.60, I: 7.96)

###

# Species: Homo sapiens
# Measurement Description: Selectivity ratio of human SST1 receptor to human SST5 receptor
Measurement Type: Selectivity ratio

Example entries and their recorded answers appear below.
CCOc1cc(CN2CCC(NC(=O)c3cncc(C)c3)CC2)cc(OCC)c1-n1ccnc1; 213
CCOc1cc(CN2CCC(NC(=O)c3cncc(C)c3)CC2)ccc1-c1ccc(C(F)(F)F)cc1; 89
CCOc1cc(CN2CCC(NC(=O)c3ccc(Cl)nc3)CC2)cc(OCC)c1-c1ccc(F)cc1; 54
CCOc1cc(CN2CCC(NC(=O)c3ccc(NC)nc3)CC2)cc(OCC)c1-c1ccc(F)cc1; 211

(P) CCOc1cc(CN2CCC[C@@H](NC(=O)c3cncc(C)c3)CC2)ccc1C
(Q) CCOc1cc(CN2CCC(NC(=O)c3ccc(NC(C)C)nc3)CC2)cc(OCC)c1F
query: In the pair P and Q , the larger recorded Selectivity ratio belongs to which? When you have decided, please share the label of that item.
result: P

(a) CCOc1cc(CN2CCC(NC(=O)c3cncc(C)c3)CC2)ccc1Cl
(b) CCOc1cc(CN2CCC[C@@H](NC(=O)c3cncc(C)c3)CC2)ccc1Cl
(c) CCOc1cc(CN2CCCC(NC(=O)c3cncc(C)c3)CC2)cc(OCC)c1-c1ccc(F)cc1 (racemic)
(d) CCOc1cc(CN2CCC(NC(=O)c3cncc(C)c3)CC2)cc(OCC)c1-c1ccc(OC(F)(F)F)cc1
query: Which order do these items take when sorted by rising Selectivity ratio? List them. The labels, placed in the requested order, form the answer.
result: c, b, a, d

###

# Measurement Description: Solubility of the compound in 50 mM phosphate buffer at pH 6.5 by lyophilisation solubility assay
# Assay type: physicochemical
Measurement Type: solubility (µg/mL)

Example entries and their recorded answers appear below.
CCOc1cc(CN2CCC(NC(=O)c3ccc(NC)nc3)CC2)cc(OCC)c1F; 330
CCOc1cc(CN2CCC(NC(=O)c3cncc(C)c3)CC2)cc(OCC)c1Cl; 216
CCOc1cc(CN2CCC(NC(=O)c3ccc(Cl)nc3)CC2)cc(OCC)c1-c1ccc(F)cc1; 76
CCOc1cc(CN2CCC(NC(=O)c3cncc(C)c3)CC2)cc(OCC)c1-c1ccccc1; 152
CCOc1cc(CN2CCC(NC(=O)c3ccc(NC)nc3)CC2)cc(OCC)c1-c1ccccc1; 155
CCOc1cc(CN2CCC(NC(=O)c3cncc(C)c3)CC2)cc(OCC)c1-c1ccc(F)cc1; 94
CCOc1cc(CN2CCC(NC(=O)c3cncc(C)c3)CC2)ccc1-c1ccc(F)cc1; 101

(P) CCOc1cc(CN2CCC(NC(=O)c3cncc(C)c3)CC2)cc(OCC)c1C
(Q) CCOc1cc(CN2CCC(NC(=O)c3cncc(C)c3)CC2)cc(OCC)c1F
query: Could you tell me which of these two has the smaller solubility figure? First: P Second: Q When you have decided, please share the label of that item.
result: P
(P: 106 µg/mL, Q: 443 µg/mL)

###

# Measurement Description: Membrane permeability of the compound by PAMPA
# Assay type: ADME
# Experimental Conditions: read-out: permeability
Measurement Type: Papp (×10⁻⁶ cm/s)

Example entries and their recorded answers appear below.
CCOc1cc(CN2CC(NC(=O)c3cncc(C)c3)C2)cc(OCC)c1F; 1.93
CCOc1cc(CN2CCCC(NC(=O)c3cncc(C)c3)CC2)cc(OCC)c1-c1ccc(F)cc1 (racemic); 1.56
CCOc1cc(CN2CCC(NC(=O)c3ccc(NC)nc3)CC2)cc(OCC)c1F; 2.98
CCOc1cc(CN2CCC(NC(=O)c3ccc(NC(C)C)nc3)CC2)cc(OCC)c1F; 2.41
CCOc1cc(CN2CCC(NC(=O)c3cncc(C)c3)CC2)cc(OCC)c1-c1ccc(F)cc1; 0.46

(1) CCOc1cc(CN2CCC(NC(=O)c3cncc(C)c3)CC2)cc(OCC)c1-c1ccccc1
(2) CCOc1cc(CN2CCC(NC(=O)c3ccc(NC)nc3)CC2)cc(OCC)c1-c1ccccc1
(3) CCOc1cc(CN2CCC(NC(=O)c3cncc(C)c3)CC2)cc(OCC)c1-n1ccnc1
(4) CCOc1cc(CN2CCC(NC(=O)c3ccc(N)nc3)CC2)cc(OCc2ccccc2)c1-c1ccc(F)cc1
query: Which order do these items take when sorted by rising Papp? List them. The labels, placed in the requested order, form the answer.
result: 4, 1, 2, 3

(P) CCOc1cc(CN2CCC(NC(=O)c3cncc(C)c3)CC2)cc(OCC)c1F
(Q) CCOc1cc(CN2CCC(NC(=O)c3cncc(C)c3)CC2)cc(OCC)c1C
(R) CCOc1cc(CN2CCC(NC(=O)c3ccc(N)nc3)CC2)cc(OCC)c1-c1ccc(F)cc1
query: Which order do these items take when sorted by rising Papp? List them. The labels, placed in the requested order, form the answer.
result: R, Q, P
(R: 1.39 ×10⁻⁶ cm/s, Q: 2.36 ×10⁻⁶ cm/s, P: 3.48 ×10⁻⁶ cm/s)

(a) CCOc1cc(CN2CCC(NC(=O)c3cncc(C)c3)CC2)ccc1C
(b) CCOc1cc(CN2CCC(NC(=O)c3cncc(C)c3)CC2)ccc1Cl
query: In the pair a and b , the larger recorded Papp belongs to which? When you have decided, please share the label of that item.
result: a
(a: 2.94 ×10⁻⁶ cm/s, b: 1.93 ×10⁻⁶ cm/s)

(P) CCOc1cc(CN2CCC(NC(=O)c3cncc(C)c3)CC2)cc(OCC)c1Cl
(Q) CCOc1cc(CN2CCC(NC(=O)c3ccc(N)nc3)CC2)ccc1C
(R) CCOc1cc(CN2CCC(NC(=O)c3cncc(C)c3)CC2)ccc1-c1ccc(F)cc1
query: Which order do these items take when sorted by rising Papp? List them. The labels, placed in the requested order, form the answer.
result: R, Q, P

(P) CCOc1cc(CN2CCC(NC(=O)c3cncc(C)c3)CC2)ccc1-c1ccc(C(F)(F)F)cc1
(Q) CCOc1cc(CN2CCC(NC(=O)c3ccc(NC)nc3)CC2)cc(OCC)c1-c1ccc(F)cc1
query: In the pair P and Q , the larger recorded Papp belongs to which? When you have decided, please share the label of that item.
result: Q

###

# Measurement Description: Solubility of the compound in 50 mM phosphate buffer at pH 6.5 by lyophilisation solubility assay
# Type: physicochemical
Measurement Type: solubility (µg/mL)

Example entries and their recorded answers appear below.
CCOc1cc(CN2CCC(NC(=O)c3cncc(C)c3)CC2)ccc1Cl; 172
CCOc1cc(CN2CCC(NC(=O)c3ccc(N)nc3)CC2)cc(OCc2ccccc2)c1-c1ccc(F)cc1; 5
CCOc1cc(CN2CCC(NC(=O)c3cncc(C)c3)CC2)cc(OCC)c1-n1ccnc1; 473
CCOc1cc(CN2CCCC(NC(=O)c3cncc(C)c3)CC2)cc(OCC)c1-c1ccc(F)cc1 (racemic); 81
CCOc1cc(CN2CCC(NC(=O)c3ccc(N)nc3)CC2)cc(OCC)c1-c1ccc(F)cc1; 123

(P) CCOc1cc(CN2CCC(NC(=O)c3ccc(NC)nc3)CC2)cc(OCC)c1-c1ccc(F)cc1
(Q) CCOc1cc(CN2CCC(NC(=O)c3ccc(N)nc3)CC2)ccc1C
query: Could you tell me which of these two has the smaller solubility figure? First: P Second: Q When you have decided, please share the label of that item.
result: P
(P: 153 µg/mL, Q: 375 µg/mL)

###

# Measurement Description: Octanol-TAPSO distribution coefficient, log D of the compound at pH 7.4 by spectrophotometric analysis
# Assay type: physicochemical
# Experimental Conditions: octanol/TAPSO buffer
Measurement Type: logD

Example entries and their recorded answers appear below.
CCOc1cc(CN2CCC(NC(=O)c3cncc(C)c3)CC2)cc(OCC)c1F; 2.9
CCOc1cc(CN2CCC(NC(=O)c3ccc(Cl)nc3)CC2)cc(OCC)c1-c1ccc(F)cc1; 3.55
CCOc1cc(CN2CCC(NC(=O)c3cncc(C)c3)CC2)cc(OCC)c1C; 3.61
CCOc1cc(CN2CCC(NC(=O)c3ccc(NC(C)C)nc3)CC2)cc(OCC)c1F; 3.39
CCOc1cc(CN2CCCC(NC(=O)c3cncc(C)c3)CC2)cc(OCC)c1-c1ccc(F)cc1 (racemic); 3.31
CCOc1cc(CN2CC(NC(=O)c3cncc(C)c3)C2)cc(OCC)c1F; 2.44

(I) CCOc1cc(CN2CCC(NC(=O)c3ccc(NC)nc3)CC2)cc(OCC)c1F
(II) CCOc1cc(CN2CCC(NC(=O)c3ccc(N)nc3)CC2)cc(OCc2ccccc2)c1-c1ccc(F)cc1
query: Could you tell me which of these two has the smaller logD figure? First: I Second: II When you have decided, please share the label of that item.
result: I
(I: 2.66, II: 3.94)
